What IC50 was measured for each of the following?
Tested on: Endogenous Huntingtin Protein
Assay: Endogenous Huntingtin Protein Assay (Meso Scale Discovery ELISA-based electrochemiluminescence)
Type: cell-based
Conditions: MSD electrochemiluminescence, Table 1

[
  {
    "Compound": "Cc1cn2nc(-c3cc(F)c4cc(C5CC(C)N(CCO)C(C)C5)nnc4c3)cc(C)c2n1 (centres unmarked)",
    "IC50": "≤ 0.1 µM"
  },
  {
    "Compound": "COCCOc1cc(-c2cc(F)c3nc(C4CCNCC4)ccc3c2)nn2cc(C)nc12",
    "IC50": "0.1 to 0.5 µM"
  }
]

Please state, for each entry, its recorded IC50.
1. Cc1cc(-c2cnc3cc(C4CCNCC4)ccc3c2)cc2cn(C)nc12
2. Cc1cn2nc(-c3cc(F)c4cc(C5CCNCC5)nnc4c3)cc(-n3ccnc3)c2n1
3. Cc1cn2nc(-c3cc(F)c4cc(C5CCN(CCF)CC5)nnc4c3)cc(C)c2n1
4. Cc1cn2nc(-c3cc(F)c4cc(C5CCNCC5)nnc4c3)cc(C(C)C)c2n1

["1 to 3 µM", "0.1 to 0.5 µM", "≤ 0.1 µM", "≤ 0.1 µM"]

Please state, for each entry, its recorded IC50.
1. Cc1cn2nc(-c3nnc4cc(C5CCNCC5)ccc4n3)cc(C)c2n1
2. COc1cc(-c2cc(F)c3nc(C4CCNCC4)ccc3c2)cc2cn(C)nc12
3. CCc1cc(-c2cc(F)c3cc(C4CCN(CC)CC4)nnc3c2)nn2cc(C)nc12
4. Cn1cc2cc(-c3ncc4cc(C5=CCNCC5)cc(F)c4n3)cc(F)c2n1

1. 0.1 to 0.5 µM
2. ≤ 0.1 µM
3. ≤ 0.1 µM
4. ≤ 0.1 µM

====

System: Endogenous Huntingtin Protein
Test: Endogenous Huntingtin Protein Assay (Meso Scale Discovery ELISA-based electrochemiluminescence)
Type: cell-based
Settings: MSD electrochemiluminescence, Table 1
pIC50: −log10 of the molar value.
Recorded metric: pIC50

A selection of reference data follows.
[
  {
    "Molecule": "CCN1CCC(c2cc3c(F)cc(-c4cc(C)c5nn(C)cc5n4)cc3nn2)CC1",
    "Measurement target": "Endogenous Huntingtin Protein",
    "Recorded metric": "pIC50",
    "Measured value": "≥ 7.00"
  },
  {
    "Molecule": "Cn1cc2cc(-c3cc(F)c4nc(C5CCNCC5)ncc4c3)cc(F)c2n1",
    "Measurement target": "Endogenous Huntingtin Protein",
    "Recorded metric": "pIC50",
    "Measured value": "≥ 7.00"
  }
]

Please state, for each entry, its recorded pIC50.
1. CC[C@H]1CC(c2cc3c(F)cc(-c4cc(C)c5nc(C)cn5n4)cc3nn2)C[C@H](CC)N1C (some centres unmarked)
2. Cc1cc(-c2cc3c(F)cc(C4=CCCNCC4)cc3nn2)cc2cn(C)nc12

1: ≥ 7.00; 2: 6.30 to 7.00

Please state, for each entry, its recorded pIC50.
1. CCN1CCC(c2cc3c(F)cc(-c4cc(CCO)c5nc(C)cn5n4)cc3nn2)CC1
2. CCN1CCC(c2cc3c(F)cc(-c4cc(C)c5nc(C)[nH]c5n4)cc3nn2)CC1
3. Cc1cc(-c2ccc3nc(C4CCNCC4)ncc3c2F)cc2cn(C)nc12
4. Cc1cn2nc(-c3cc(F)c4cc(C5CCNCC5)nnc4c3)cc(Oc3ccccc3)c2n1
5. Cc1cn2nc(-c3cc(F)c4cc(C5CCN(CCn6cnc7ccccc76)CC5)nnc4c3)cc(C)c2n1
6. Cc1cn2nc(-c3cc(F)c4nc(C5CCNCC5)ncc4c3)cc(C)c2n1
7. Cc1cn2nc(-c3cc(F)c4cc(N5CC6CC5CN6C)nnc4c3)cc(C)c2n1 (centres unmarked)
8. Cc1cn2nc(-c3cc(F)c4cc(N5C[C@@H]6C[C@H]5CN6C)nnc4c3)cc(C)c2n1

["≥ 7.00", "≥ 7.00", "5.52 to 6.00", "≥ 7.00", "≥ 7.00", "≥ 7.00", "6.30 to 7.00", "≥ 7.00"]

Please state, for each entry, its recorded pIC50.
1. CN1CCC(c2ccc3cc(-c4ccc5nn(C)cc5c4)ccc3n2)CC1
2. Cc1cn2nc(-c3cc(F)c4cc(N5CC6(CCNC6)C5)nnc4c3)cc(C)c2n1
3. CCN1CCC(c2cc3c(F)cc(-c4cc(CC#N)c5nc(C)cn5n4)cc3nn2)CC1
4. Cc1cn2nc(-c3cc(F)c4cc(C5CCCN(C)CC5)nnc4c3)cc(C)c2n1 (centres unmarked)

1. 6.00 to 6.30
2. ≥ 7.00
3. 6.30 to 7.00
4. ≥ 7.00

Check the records and state pIC50 for Cc1cn2cc(-c3cc(F)c4cc(C5CCNCC5)nnc4c3)cc(C)c2n1
≥ 7.00
